# Test system: Escherichia coli TOP10
# protocol.text: shrunken log2 fold change of peptide-encoding DNA abundance (4.5 h post-induction vs induction); higher = less antimicrobial activity (less host growth inhibition)
# conditions: time post-induction: 4.5 h; library: site-saturation at positions 5, 18, 19, 20
value.kind: shrunken log2 fold change

1. RRIRMRPPRLPRPRPRPPDGPRP ... 1.41
2. RRIRGRPPRLPRPRPRPDHAPRP ... 0.217
3. RRIRVRPPRLPRPRPRPERKPRP ... 0.111
4. RRIRHRPPRLPRPRPRPPFKPRP ... 0.332
5. RRIRLRPPRLPRPRPRPRTKPRP ... 0.567
6. RRIRLRPPRLPRPRPRPQSRPRP ... -0.377
7. RRIRHRPPRLPRPRPRPAVMPRP ... -0.0305
8. RRIRGRPPRLPRPRPRPRLWPRP ... 1.36
9. RRIRHRPPRLPRPRPRPPMFPRP ... -0.214
10. RRIRVRPPRLPRPRPRPGWYPRP ... 0.0128
11. RRIRARPPRLPRPRPRPNVVPRP ... -0.0083

====

# Tested on: Escherichia coli TOP10;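 also: peptides expressed intracellularly from a pBAD plasmid library in pooled LB shake-flask culture, induced with 0.3% L-arabinose, DNA abundance read by NGS, three biological replicates, DESeq2 with apeglm shrinkage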
# protocol.text: shrunken log2 fold change of peptide-encoding DNA abundance (4.5 h post-induction vs induction); higher = less antimicrobial activity (less host growth inhibition)
# conditions: time post-induction: 4.5 h; library: site-saturation at positions 5, 18, 19, 20
Parameter: shrunken log2 fold change. Scope: all listed entries.
value.kind: shrunken log2 fold change

1. RRIRHRPPRLPRPRPRPNWMPRP ... 0.00348
2. RRIRLRPPRLPRPRPRPEVIPRP ... 0.178
3. RRIRHRPPRLPRPRPRPFPHPRP ... 0.188
4. RRIRFRPPRLPRPRPRPSWVPRP ... -0.393
5. RRIRIRPPRLPRPRPRPNSKPRP ... -0.899
6. RRIRARPPRLPRPRPRPRMNPRP ... 0.183
7. RRIRTRPPRLPRPRPRPCPQPRP ... -0.312
8. RRIRSRPPRLPRPRPRPFSKPRP ... -0.0877
9. RRIRHRPPRLPRPRPRPWKAPRP ... 0.00938
10. RRIRLRPPRLPRPRPRPKCRPRP ... 0.147
11. RRIRGRPPRLPRPRPRPPHGPRP ... 0.903
12. RRIRDRPPRLPRPRPRPIILPRP ... 0.0057
13. RRIRFRPPRLPRPRPRPWCTPRP ... -0.288
14. RRIRQRPPRLPRPRPRPIISPRP ... -0.189
15. RRIRKRPPRLPRPRPRPGLCPRP ... 0.168
16. RRIRWRPPRLPRPRPRPYRNPRP ... -0.552
17. RRIRWRPPRLPRPRPRPSQFPRP ... -0.196
18. RRIRERPPRLPRPRPRPGMHPRP ... 0.0491
19. RRIRQRPPRLPRPRPRPVQNPRP ... 0.0137
20. RRIRHRPPRLPRPRPRPPMQPRP ... 0.268
21. RRIRNRPPRLPRPRPRPKDKPRP ... -0.112
22. RRIRTRPPRLPRPRPRPKPHPRP ... 0.0899
23. RRIRDRPPRLPRPRPRPGKTPRP ... -0.00088
24. RRIRTRPPRLPRPRPRPMHNPRP ... -0.503
25. RRIRNRPPRLPRPRPRPVTAPRP ... -0.248
26. RRIRGRPPRLPRPRPRPNPPPRP ... 0.336
27. RRIRRRPPRLPRPRPRPYPRPRP ... 0.207
28. RRIRARPPRLPRPRPRPNQMPRP ... 0.143
29. RRIRPRPPRLPRPRPRPRQEPRP ... 3.83
30. RRIRLRPPRLPRPRPRPRNCPRP ... -0.51
31. RRIRYRPPRLPRPRPRPTAYPRP ... -0.537
32. RRIRPRPPRLPRPRPRPWWCPRP ... -0.258
33. RRIRVRPPRLPRPRPRPINPPRP ... -0.327
34. RRIRNRPPRLPRPRPRPSKSPRP ... -0.227
35. RRIRARPPRLPRPRPRPPTSPRP ... 0.525
36. RRIRRRPPRLPRPRPRPDLLPRP ... 0.0733
